target: T1, human PCSK9 (human, UniProt Q8NBP7 31-692); experiment: SPR (Biacore), IgG captured by anti-human IgG, PCSK9 injected at 3.75-60 nM
T1 construct: Secreted PCSK9 is autocleaved into prodomain and mature chain, and a His-tag is named for the HEK293 constructs; also called hPCSK9; proprotein convertase subtilisin-kexin type 9
T1 sequence (Q8NBP7 31-692 limits assumed): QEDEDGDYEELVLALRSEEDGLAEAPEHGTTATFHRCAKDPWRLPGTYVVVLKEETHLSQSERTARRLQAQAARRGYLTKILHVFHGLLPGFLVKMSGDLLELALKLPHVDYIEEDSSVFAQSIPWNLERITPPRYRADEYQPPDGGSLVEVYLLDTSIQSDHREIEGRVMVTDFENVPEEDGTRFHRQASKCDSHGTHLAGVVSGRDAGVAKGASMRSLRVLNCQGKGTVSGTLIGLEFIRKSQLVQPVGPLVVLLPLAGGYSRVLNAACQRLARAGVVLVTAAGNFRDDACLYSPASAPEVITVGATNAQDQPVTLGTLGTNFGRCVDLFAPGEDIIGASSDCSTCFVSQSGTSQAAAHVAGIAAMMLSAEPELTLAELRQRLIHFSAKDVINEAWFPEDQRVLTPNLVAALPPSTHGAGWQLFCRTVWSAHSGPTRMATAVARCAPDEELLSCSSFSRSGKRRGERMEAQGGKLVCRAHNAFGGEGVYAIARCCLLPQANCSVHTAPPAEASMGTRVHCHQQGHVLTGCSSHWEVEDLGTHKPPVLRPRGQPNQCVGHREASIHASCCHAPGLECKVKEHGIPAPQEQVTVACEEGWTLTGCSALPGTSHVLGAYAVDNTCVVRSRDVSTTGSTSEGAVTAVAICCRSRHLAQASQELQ
// kon lookup, one value per entry
Write it as a number; the unit M⁻¹ s⁻¹ goes unstated.

AX213 IgG (antibody, V domains shown) VH: EVQLLESGGGLVQPGGSLRLSCKASGYTFSRYGINWVRQAPGKGLEWIGRIDPGNGGTRYNEKFKGKATISRDNSKNTLYLQMNSLRAEDTAVYYCARANDGYSFDYWGQGTLVTVSS VL: EIVLTQSPATLSLSPGERATITCRASQYVGSYLNWYQQKPGQAPRLLIYDASNRATGIPARFSGSGSGTDFTLTISSLEPEDFAVYYCQVWDSSPPVVFGGGTKVEIKR; 353000
AX210 IgG (antibody, V domains shown, Purified IgG) VH: QVQLLESGGGLVQPGGSLRLSCKASGYTFSSYSIYWVRQAPGKGLEWIGWIDPGNGGTRYNQKFQSKATISRDNSKNTLYLQMNSLRAEDTAVYYCARARVGYSLDYWGQGTLVTVSS VL: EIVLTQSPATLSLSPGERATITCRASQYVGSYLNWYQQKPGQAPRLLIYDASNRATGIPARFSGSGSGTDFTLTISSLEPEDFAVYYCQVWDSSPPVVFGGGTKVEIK; 235000
AX211 IgG (antibody, V domains shown, Purified IgG) VH: QVQLLESGGGLVQPGGSLRLSCKASGYTFSRQGFTWVRQAPGKGLEWIGWIDPGNGGTRYNEKFKGKATISRDNSKNTLYLQMNSLRAEDTAVYYCARYRVGYSLDYWGQGTLVTVSS VL: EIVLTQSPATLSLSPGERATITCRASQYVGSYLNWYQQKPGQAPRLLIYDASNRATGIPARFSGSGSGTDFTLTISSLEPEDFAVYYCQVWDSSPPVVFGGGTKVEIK; 361000

We next turn to a different binder, shown below.
# binder AX114 IgG (antibody, V domains shown, Purified IgG; also called AX114-IgG2) VH: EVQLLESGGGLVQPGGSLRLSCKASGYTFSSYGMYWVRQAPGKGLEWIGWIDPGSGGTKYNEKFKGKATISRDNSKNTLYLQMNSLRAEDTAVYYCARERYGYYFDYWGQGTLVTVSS VL: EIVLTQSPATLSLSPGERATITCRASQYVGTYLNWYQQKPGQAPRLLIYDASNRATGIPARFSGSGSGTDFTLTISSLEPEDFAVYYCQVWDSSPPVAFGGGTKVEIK ; its kon = 151000

Source: patent US20120213794A1
